- TARGET OF ASSAY: Prostaglandin E2 receptor EP2 subtype (Homo sapiens) (UniProt P43116)
- Sequence (P43116 whole entry, looked up): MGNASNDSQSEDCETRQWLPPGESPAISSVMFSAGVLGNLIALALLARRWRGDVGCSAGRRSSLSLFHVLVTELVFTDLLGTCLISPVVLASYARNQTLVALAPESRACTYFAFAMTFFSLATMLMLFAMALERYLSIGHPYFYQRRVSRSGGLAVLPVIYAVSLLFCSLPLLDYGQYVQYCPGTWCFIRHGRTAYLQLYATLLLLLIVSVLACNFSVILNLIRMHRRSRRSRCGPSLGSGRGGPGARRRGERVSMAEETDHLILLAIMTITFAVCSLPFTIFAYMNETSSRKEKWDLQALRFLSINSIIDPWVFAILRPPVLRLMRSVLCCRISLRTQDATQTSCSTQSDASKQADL
- ASSAY DETAILS: EP2 receptor modulators, dose response, cell-based, human EP2, PGE2 EC50 shift (AID 1421)
- DETAILS: EP2-expressing cells, PGE2 EC50 shift by compound; measured here: PGE2 EC50 at 6.7 uM compound
Returns 1 (yes) if the recorded PGE2 EC50 with compound is greater than or equal to 0.8 nM, and 0 (no) otherwise.

The examples below pair each entry with its known result.
# MOLECULE, CAT
measured = [
    ("Cc1ccc2[nH]c3c(=S)nc[nH]c3c2c1", "1 (yes)"),
    ("CCOC(=O)c1sc(NC(=O)C(CC)OC(=O)C(CC(C)C)NC(=O)c2ccccc2)nc1C (configuration not stated)", "1 (yes)"),
    ("CC(=O)Nc1sc2c(c1C(c1cccs1)N1CCOCC1)CCCC2 (configuration not stated)", "1 (yes)"),
    ("Cc1ccc(Nc2cc(C)nc3c(C)ccc([N+](=O)[O-])c23)cc1", "0 (no)"),
    ("Cc1cccc(OC(=O)c2sc(Cl)nc2C)c1", "1 (yes)"),
    ("C=CCC(=O)OCCCCCCOc1ccc(C(=O)O)cc1", "0 (no)"),
    ("O=C(c1cn(Cc2ccccc2)c2ccccc12)C1CC1", "1 (yes)"),
    ("CCCCNc1nc(-c2ccccc2)c(C(=O)OCC)cc1C#N", "1 (yes)"),
]

# bool: PGE2 EC50 with compound of CCOC(=O)c1c(NC(=O)CSC(=S)N(C)C)sc(C)c1C >= 0.8 nM 1 (yes)

Follow-up item: CCOC(=O)c1c(C)[nH]c(C=O)c1Cc1cccc(Cl)c1 1 (yes)

Follow-up item: CC1(C)C2CCC1(C)C(OC(=O)CC(=O)O)C2 (configuration not stated) 0 (no)

* * *

- TARGET OF ASSAY: Prostaglandin E2 receptor EP2 subtype (Homo sapiens) (UniProt P43116)
- ASSAY DETAILS: EP2 receptor modulators, dose response, cell-based, human EP2, PGE2 EC50 shift (AID 1421)
- DETAILS: EP2-expressing cells, PGE2 EC50 shift by compound; measured here: PGE2 EC50 at 6.7 uM compound
VALUE TYPE: PGE2 EC50 with compound (nM)
Provide only the numeric value, understood in nM.

Record excerpt, results attached:
# COMPOUND, PGE2 EC50 with compound [nM]
measured = [
    ("CCOc1ccc(Cl)cc1S(=O)(=O)n1cnc2cc(C)c(C)cc21", 1.16),
    ("C/C(CCC(C)C)=N\\NC(=S)NCc1ccccc1", 0.88),
    ("COC(=O)CC1C(C)(C)C(OC(C)=O)[C@@H]2[C@@H](OC(C)=O)[C@]34O[C@@]2(O)[C@]1(C)C3CC[C@]1(C)C4=CC(=O)O[C@H]1c1ccoc1 (stereo partly drawn)", 0.74),
    ("CCOc1nc2cccc(C(=O)OC(C)OC(=O)OC3CCCCC3)c2n1Cc1ccc(-c2ccccc2-c2nn[nH]n2)cc1 (stereo not drawn)", 1.42),
    ("C#CCSc1nc(Cc2ccc(Cl)cc2)nc2ccccc12", 1.22),
]

What is its PGE2 EC50 with compound for Prostaglandin E2 receptor EP2 subtype (Homo sapiens) (UniProt P43116)? Entry: O=C(Nc1cccc2cccnc12)c1ccc(Br)o1 1.22

Follow-up item: CCCCOc1ccc(-c2nnc(-c3ccco3)o2)cc1 1.18

Follow-up item: CC/C(=C\C1CCCCC1)C(NP(=O)(c1ccccc1)c1ccccc1)c1ccccc1 (stereo not drawn) 1.01

Follow-up item: COc1ccc(C)c(Cn2c(-c3nonc3N)nc3ccccc32)c1 0.86

Follow-up item: CCOc1ccccc1Cn1c(=O)oc2ccc(C)cc21 1.09

Follow-up item: CCOc1cccc(CNc2ccc(O)cc2)c1OCc1ccc(Cl)cc1 1.41

Follow-up item: CN(C)c1ncc(S(=O)(=O)c2ccccc2)c(-c2ccccc2Cl)n1 0.72

Follow-up item: O=C(Nc1ccccc1-c1nc2ccccc2s1)c1ccc(Br)o1 1.02

Follow-up item: Cc1ccc(S(=O)(=O)c2ccc(Oc3cccc(C)c3)cc2)cc1 1.41

Follow-up item: CCOC(=O)c1cnc(SC)nc1Sc1ccccc1Cl 1.07

Follow-up item: CCN(c1cccc(C)c1)S(=O)(=O)c1ccc2c3c(cccc13)C(=O)N2 0.53

Follow-up item: CCc1ccccc1NC(=S)N(Cc1ccco1)C(C)c1cccs1 (stereo not drawn) 0.9

Follow-up item: COc1c(O)cc2oc3cc(O)c(CC=C(C)C)c(O)c3c(=O)c2c1CC=C(C)C 2.62

Follow-up item: O=c1n(Cc2ccccc2F)c2ccccc2n1Cc1ccccc1F 1.01

Follow-up item: C=CCOc1ccccc1CNc1cccc(F)c1 0.84

Follow-up item: Brc1ccc(Cn2c(-c3ccc(Br)o3)nc3ccccc32)o1 2.59

Follow-up item: CCOC(=O)CCCCCCCCCCCCC1C=CCC1 (stereo not drawn) 0.96

Follow-up item: OC(COc1ccccc1)Cn1c2ccccc2c2ccccc21 (stereo not drawn) 1.4

* * *

- TARGET OF ASSAY: UniProt:P43116
- ASSAY DETAILS: EP2 receptor modulators, dose response, cell-based, human EP2, PGE2 EC50 shift (AID 1421)
- DETAILS: EP2-expressing cells, PGE2 EC50 shift by compound; measured here: PGE2 EC50 at 6.7 uM compound
Measured PGE2 EC50 with compound values are reported for all entries that follow.
Provide only the numeric value, understood in nM.

Record excerpt, results attached:
# COMPOUND, UNIT STRING, RECORDED RESULT
rows = [
    ("CCOC(=O)c1oc2ccccc2c1NC(=O)c1ccccc1OC", "nM", 1.25),
    ("Cc1noc(C)c1CSc1ncnc2sc3c(c12)CCC(C)C3 (stereo unspecified)", "nM", 1.06),
    ("NS(=O)(=O)c1ccc(NCc2cnc3ccccc3n2)cc1", "nM", 0.64),
    ("Cc1ccc(N=Nc2c(N)[nH]n3c(=O)c4c(nc23)CCCC4)cc1", "nM", 0.81),
    ("CCSc1nc2sc3c(c2c(=O)n1CC)CC(C)(C)OC3", "nM", 0.96),
]

Requested field: PGE2 EC50 with compound. Item: C(=N/n1c2ccccc2c2ccccc21)/c1ccco1 1.08

Follow-up item: O=C(O)COc1cccc(NC(=O)c2ccccc2)c1 2.83

Follow-up item: Cc1ccc(O)c(C2=Nc3ccccc3N=C(c3cccs3)C2)c1 1.17

* * *

Measured PGE2 EC50 with compound values are reported for all entries that follow.
- TARGET OF ASSAY: UniProt:P43116
- ASSAY DETAILS: EP2 receptor modulators, dose response, cell-based, human EP2, PGE2 EC50 shift (AID 1421)
- DETAILS: EP2-expressing cells, PGE2 EC50 shift by compound; measured here: PGE2 EC50 at 6.7 uM compound
Respond with a number, then the unit of measure.

Record excerpt, results attached:
# COMPOUND, TARGET OF ASSAY, VALUE TYPE, RECORDED RESULT
rows = [
    ("CCn1nnnc1SCC(=O)Nc1cccc(C)n1", "UniProt:P43116", "PGE2 EC50 with compound", "1.44 nM"),
    ("Cc1ccc(N=N/C(=C\\O)C(=O)c2ccc(Cl)cc2)cc1", "UniProt:P43116", "PGE2 EC50 with compound", "0.87 nM"),
    ("CCOC(=O)c1c(NC(=O)CSc2nnnn2CC)sc(C)c1C", "UniProt:P43116", "PGE2 EC50 with compound", "0.81 nM"),
]

Requested field: PGE2 EC50 with compound. Item: O=c1c2ccccc2nc(/C=C/c2ccccc2)n1CCc1ccccc1 0.92 nM

Follow-up item: CC(=O)Nc1nnc(CCN2CCCCC2)s1 1.46 nM

Follow-up item: C#CCn1c(S(=O)(=O)Cc2ccccc2Cl)nc(-c2ccccc2)c1-c1ccccc1 2.66 nM

Follow-up item: O=c1c2ccccc2c(-c2ccccc2)nn1-c1ccc(Cl)c(Cl)c1 1.42 nM

Follow-up item: COc1ccc(Cl)cc1-n1c(C)ccc1C 1.06 nM

Follow-up item: CCOC(=O)CSc1nc(Cc2ccccc2)nc2ccccc12 1.15 nM

* * *

- TARGET OF ASSAY: Prostaglandin E2 receptor EP2 subtype (Homo sapiens) (UniProt P43116)
- ASSAY DETAILS: EP2 receptor modulators, dose response, cell-based, human EP2, PGE2 EC50 shift (AID 1421)
- DETAILS: EP2-expressing cells, PGE2 EC50 shift by compound; measured here: PGE2 EC50 at 6.7 uM compound
VALUE TYPE: PGE2 EC50 with compound (nM)
Provide only the numeric value, understood in nM.

# MOLECULE, TARGET OF ASSAY, PGE2 EC50 with compound / nM
rows = [
    ("O=c1c2ccccc2n(Cc2ccc(Cl)cc2)c(=O)n1Cc1ccco1", "Prostaglandin E2 receptor EP2 subtype (Homo sapiens) (UniProt P43116)", 0.82),
    ("Cc1ccc2nc(-c3ccccn3)c(Nc3ccccc3C)n2c1", "Prostaglandin E2 receptor EP2 subtype (Homo sapiens) (UniProt P43116)", 0.79),
    ("Cc1ccc(Cn2ccc(=O)c(OCc3c(Cl)cccc3Cl)c2C)cc1", "Prostaglandin E2 receptor EP2 subtype (Homo sapiens) (UniProt P43116)", 1.18),
    ("CC(C)Oc1ccc(Cc2n[nH]c(=S)n2Cc2ccccc2)cc1Cl", "Prostaglandin E2 receptor EP2 subtype (Homo sapiens) (UniProt P43116)", 1.25),
    ("O=C(/C(=C/O)N=Nc1ccccc1)c1ccc(Cl)cc1", "Prostaglandin E2 receptor EP2 subtype (Homo sapiens) (UniProt P43116)", 1.12),
    ("O=C1COc2ccccc2N1Cc1ccccc1Cl", "Prostaglandin E2 receptor EP2 subtype (Homo sapiens) (UniProt P43116)", 1.38),
]

Requested field: PGE2 EC50 with compound. Item: CCOP(=O)(OCC)c1nc(-c2cccc3ccccc23)oc1NCCc1ccc(OC)cc1 0.96

Follow-up item: O=c1cc(N2CCCCC2)c(-c2ccccc2)nn1Cc1cccc(F)c1 0.33

Follow-up item: O=C(O)c1ccc(CNCc2cccc(Cl)c2Cl)cc1 0.88

Follow-up item: O=c1[nH]c(SCc2cccc(Cl)c2)nc2c1CCCC2 0.77
